- System: HeLa cells
- method_notes: Resazurin cell proliferation assay on HeLa cells
- Assay type: cell-based, human
- particulars: 72 h incubation

{"compound": "CC(C)(C)c1ccc2[c](c1)[Au-]1([c]3cc(C(C)(C)C)ccc3-2)[c]2n3ccccc3c[n+]2Cc2cccc[n+]21.F[P-](F)(F)(F)(F)F [BGC19b]", "EC50 [nM]": 1800}
{"compound": "C[n+]1[c]2n(c3ccccc31)Cc1cccc[n+]1[Au-]21[c]2cc(C(C)(C)C)ccc2-c2ccc(C(C)(C)C)c[c]21.F[P-](F)(F)(F)(F)F [BGC18b]", "EC50 [nM]": 2800}
{"compound": "C[n+]1ccn2[c]1[Au-]1([c]3cc(C(C)(C)C)ccc3-c3ccc(C(C)(C)C)c[c]31)[n+]1ccccc1C2.F[P-](F)(F)(F)(F)F [BGC12b]", "EC50 [nM]": 1800}
